Please provide measured ΔTm(SPA-TS): shift of the melting temperature of GlyT1, read by binding of [3H]-Org24598 for the entries that follow.
# experimental.system: Human GlyT1 (human) (UniProt P48067)
# Sequence (P48067 whole entry): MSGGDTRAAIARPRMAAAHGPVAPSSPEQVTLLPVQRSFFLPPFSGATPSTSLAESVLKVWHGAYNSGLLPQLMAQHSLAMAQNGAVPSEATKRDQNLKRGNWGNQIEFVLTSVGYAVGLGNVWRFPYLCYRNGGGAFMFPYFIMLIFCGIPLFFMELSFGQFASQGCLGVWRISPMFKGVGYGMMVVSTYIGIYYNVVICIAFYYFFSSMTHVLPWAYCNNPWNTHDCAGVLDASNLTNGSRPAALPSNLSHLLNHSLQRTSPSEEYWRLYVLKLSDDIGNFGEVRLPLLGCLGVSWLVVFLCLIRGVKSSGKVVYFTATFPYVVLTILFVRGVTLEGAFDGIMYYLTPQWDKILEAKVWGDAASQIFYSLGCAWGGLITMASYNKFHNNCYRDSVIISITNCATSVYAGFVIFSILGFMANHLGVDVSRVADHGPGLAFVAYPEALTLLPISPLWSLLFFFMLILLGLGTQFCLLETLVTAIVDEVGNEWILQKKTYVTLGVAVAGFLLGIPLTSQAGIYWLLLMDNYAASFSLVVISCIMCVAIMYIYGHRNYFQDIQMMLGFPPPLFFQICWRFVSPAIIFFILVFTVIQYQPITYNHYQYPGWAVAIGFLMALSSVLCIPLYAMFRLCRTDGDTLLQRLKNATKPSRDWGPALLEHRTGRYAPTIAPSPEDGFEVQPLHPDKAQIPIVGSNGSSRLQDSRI
Dear colleague, please return just the value in °C, with no unit written.

Lookup: What measured ΔTm(SPA-TS): shift of the melting temperature of GlyT1, read by binding of [3H]-Org24598 goes with Sb_GlyT1#7 (VHH) VHH: QVQLVESGGGLVQAGGSLRLSCAASGFPVYAYEMYWYRQAPGKEREWVAAISSSGTWAGYADSVKGRFTISRDNAKNTVYLQMNSLKPEDTAVYYCNVKDWGASWAYYDYWGQGTQVTVS ?
Found: 10

Lookup: Look up ΔTm(SPA-TS): shift of the melting temperature of GlyT1, read by binding of [3H]-Org24598: Sb_GlyT1#2 (VHH) VHH: QVQLVESGGGLVQAGGSLRLSCAASGFPVYHRSMLWYRQAPGKEREWVAAIKSNGAGTWYADSVKGRFTISRDNAKNTVYLQMNSLKPEDTAVYYCTVGVGTNYWGQGTQVTVS
Found: 1.5

Lookup: // query ΔTm(SPA-TS): shift of the melting temperature of GlyT1, read by binding of [3H]-Org24598 value for entry Sb_GlyT1#3 (VHH) VHH: QVQLVESGGGLVQAGGSLRLSCAASGFPVWNNGMAWYRQAPGKEREWVAAIASRGRSTVYADSVKGRFTISRDNAKNTVYLQMNSLKPEDTAVYYCYVNVGSHYEGQGTQVTVS
Found: 1.7

Lookup: Would you mind telling me what ΔTm(SPA-TS): shift of the melting temperature of GlyT1, read by binding of [3H]-Org24598 value was observed for Sb_GlyT1#1 (VHH) VHH: QVQLVESGGGLVQAGGSLRLSCAASGFPVYYSHMLWYRQAPGKEREWVAAIKSLGAKTWYADSVKGRFTISRDNAKNTVYLQMNSLKPEDTAVYYCTVGVGTNYYGQGTQVTVS ?
Found: 0.9
